# System tested: cdk2 cyclinA(h) (Homo sapiens, UniProt P24941)
# Test: Kinase inhibitory activity (EMD Millipore KinaseProfiler), cdk2
# Assay setup: determined in duplicate at 0.2, 2, and 20 μM; read-out: Cdk2 Activity EC50 +/− SEM
Metric name: EC50 (µM)

>>> assay_result("CCCn1cnc2c(NCc3ccc(C)s3)nc(N[C@H](CC)CO)nc21 [Compound 13x]")
3
>>> assay_result("CC[C@H](CO)Nc1nc(NCc2ccc(C)s2)c2ncn(C)c2n1 [Compound 13w]")
3

----------
# System tested: P/Q-type channels (Cav 2.1) (Rattus norvegicus)
# Construct: host or cells: tsA-201
# Sequence (P54282 whole entry): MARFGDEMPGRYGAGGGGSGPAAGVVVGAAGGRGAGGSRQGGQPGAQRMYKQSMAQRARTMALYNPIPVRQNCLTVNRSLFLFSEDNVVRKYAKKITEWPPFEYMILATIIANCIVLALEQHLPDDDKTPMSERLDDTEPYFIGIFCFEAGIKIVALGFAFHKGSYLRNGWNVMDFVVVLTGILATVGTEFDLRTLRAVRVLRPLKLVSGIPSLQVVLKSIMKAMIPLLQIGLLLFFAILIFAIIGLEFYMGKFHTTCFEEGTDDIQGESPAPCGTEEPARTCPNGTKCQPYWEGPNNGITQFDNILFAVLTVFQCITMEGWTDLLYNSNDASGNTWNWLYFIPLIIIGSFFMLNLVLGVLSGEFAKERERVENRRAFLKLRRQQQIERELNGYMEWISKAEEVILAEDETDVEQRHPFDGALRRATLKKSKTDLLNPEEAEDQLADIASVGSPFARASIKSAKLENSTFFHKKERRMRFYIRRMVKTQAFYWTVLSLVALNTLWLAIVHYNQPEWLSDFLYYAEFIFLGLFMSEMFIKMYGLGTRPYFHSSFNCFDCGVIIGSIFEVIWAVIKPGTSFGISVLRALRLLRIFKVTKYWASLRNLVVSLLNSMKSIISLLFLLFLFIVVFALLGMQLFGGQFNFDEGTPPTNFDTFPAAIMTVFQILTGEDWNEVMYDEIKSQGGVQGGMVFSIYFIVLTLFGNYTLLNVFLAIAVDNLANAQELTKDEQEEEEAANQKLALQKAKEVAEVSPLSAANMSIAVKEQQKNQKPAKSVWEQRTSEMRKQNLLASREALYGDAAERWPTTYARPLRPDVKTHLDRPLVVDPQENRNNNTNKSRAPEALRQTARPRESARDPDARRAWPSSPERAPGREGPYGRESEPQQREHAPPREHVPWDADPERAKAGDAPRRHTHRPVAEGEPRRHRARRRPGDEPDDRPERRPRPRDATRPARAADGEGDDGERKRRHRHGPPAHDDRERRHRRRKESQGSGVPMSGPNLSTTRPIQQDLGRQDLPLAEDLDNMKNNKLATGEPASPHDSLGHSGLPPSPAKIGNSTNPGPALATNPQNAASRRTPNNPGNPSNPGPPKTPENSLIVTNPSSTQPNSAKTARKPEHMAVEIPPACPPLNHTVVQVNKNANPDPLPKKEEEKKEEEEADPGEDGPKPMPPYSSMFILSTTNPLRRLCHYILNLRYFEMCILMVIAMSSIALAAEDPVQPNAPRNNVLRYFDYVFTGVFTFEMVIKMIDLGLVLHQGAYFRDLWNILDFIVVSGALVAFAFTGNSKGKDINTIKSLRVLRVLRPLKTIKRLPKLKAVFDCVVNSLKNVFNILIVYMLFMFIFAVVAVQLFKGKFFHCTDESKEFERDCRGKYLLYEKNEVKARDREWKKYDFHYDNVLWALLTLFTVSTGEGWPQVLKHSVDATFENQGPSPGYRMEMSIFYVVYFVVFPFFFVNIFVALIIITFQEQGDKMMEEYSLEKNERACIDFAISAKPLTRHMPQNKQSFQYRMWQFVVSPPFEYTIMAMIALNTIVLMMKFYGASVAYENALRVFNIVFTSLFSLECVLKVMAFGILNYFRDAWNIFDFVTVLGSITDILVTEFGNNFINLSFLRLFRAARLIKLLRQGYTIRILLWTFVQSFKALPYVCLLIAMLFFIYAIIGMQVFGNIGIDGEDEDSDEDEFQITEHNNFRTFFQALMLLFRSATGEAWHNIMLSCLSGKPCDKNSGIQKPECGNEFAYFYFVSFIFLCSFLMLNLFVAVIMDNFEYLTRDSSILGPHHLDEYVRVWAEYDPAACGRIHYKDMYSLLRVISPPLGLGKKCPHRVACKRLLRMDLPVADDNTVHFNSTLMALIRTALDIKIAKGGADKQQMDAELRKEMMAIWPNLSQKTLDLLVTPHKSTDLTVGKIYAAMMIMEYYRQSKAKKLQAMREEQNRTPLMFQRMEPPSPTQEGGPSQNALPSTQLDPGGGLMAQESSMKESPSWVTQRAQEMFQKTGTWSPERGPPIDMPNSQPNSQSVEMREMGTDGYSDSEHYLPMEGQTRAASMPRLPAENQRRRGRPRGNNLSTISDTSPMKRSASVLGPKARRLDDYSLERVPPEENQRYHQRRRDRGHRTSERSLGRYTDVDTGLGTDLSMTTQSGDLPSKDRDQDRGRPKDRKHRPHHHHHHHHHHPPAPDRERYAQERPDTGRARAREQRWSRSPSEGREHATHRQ
# Test: P/Q-type Ca2+ channel agonist activity, whole-cell perforated patch clamp in tsA-201 cells
# Assay type: cell-based
# Assay setup: b265; read-out: agonist effects on P/Q-type calcium channels EC50
pEC50: −log10 of the molar value.
Metric name: pEC50

>>> assay_result("CCCn1cnc2c(NCc3ccc(C)s3)nc(N[C@H](CC)CO)nc21 [Compound 13x]")
5.00

Data provenance: patent US9796714B2
